Consider the following variants; for each one, report its protein stability index.
B1: GALNT9 (parent)
chain: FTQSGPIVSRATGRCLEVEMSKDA

variants of: B1; experiment: protein stability index of a GFP-peptide fusion (GPS, HEK-293T) (PSI 1-6); higher = more stable; conditions: c terminus: a fixed tail appended;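 note: lentivirally expressed fusions sorted by FACS into six bins by GFP to DsRed ratio, PSI derived from sequencing read proportions per bin multiplied by bin number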
Answer with a bare number; do not write a unit.

protein stability index reported for this variant G13H : 1.99

protein stability index reported for this variant S4P : 2

protein stability index reported for this variant E17P : 2.05

This collection of values is drawn from the supplement of paper PMC10567573.
